Tested on: DB
experimentSummary: Cell viability assay (CellTiter-Glo, ATP quantification)
Type: cell-based, human
setupConditions: Homo sapiens, 96 h, cell viability by ATP quantification, read-out: 50% inhibitory concentration (IC50)
reportedMetric: IC50 (µM)
Kindly provide the numeric value in µM only, without the unit symbol.

compoundStructureString: CC(=O)N(O)CCCCCNC(=O)CCC(=O)N(O)CCCCCNC(=O)CCC(=O)N(O)CCCCCN
unitSymbol: µM
IC50: 3.24

Now take the following molecule into account.
Fill in: IC50 of O=C(O)c1ccc(-n2nc(-c3ccccc3O)nc2-c2ccccc2O)cc1 is ___
13.9

---

Tested on: OCI-LY3
experimentSummary: Cell viability assay (CellTiter-Glo, ATP quantification)
Type: cell-based, human
setupConditions: OCI-LY3, 96H, cell viability by ATP quantification; read-out: 50% inhibitory concentration (IC50)
Catalogue of compounds with associated IC50
Your answer should be a plain number; it is taken to be in µM.

// returns reported IC50 for input CC(=O)N(O)CCCCCNC(=O)CCC(=O)N(O)CCCCCNC(=O)CCC(=O)N(O)CCCCCN
3.75

Data request, read-out IC50, for O=C(O)c1ccc(-n2nc(-c3ccccc3O)nc2-c2ccccc2O)cc1
9.5
